- STUDY SYSTEM: the molecule itself
- METHOD DESCRIPTION: ITC; dilution series: 10 μl aliquants of 0.4 mM SLR1(M28-A112) into 1.4482 ml of buffer without OsGID1/GA3, 30 °C; dimer to monomers
PROPERTY NAME: pKd
// field semantics: pKd = negative decimal log of concentration (mol/L)

Recorded pKd for SLR1(M28-A112), Trx-free (domain or fragment, rice (Oryza sativa), UniProt Q7G7J6 28-112, looked up, DELLA protein SLR1 of rice (Oryza sativa), residues M28-A112; 13C/15N-labelled for the NMR spectra; also called SLR(M28-A112); source: E. coli, purified (HiTrap Chelating, Superdex 200; thrombin, HiTrap Chelating, Superdex 75); not shown: Trx, N-terminal, cleaved; His6, N-terminal, cleaved) MAGAAGEEEDVDELLAALGYKVRSSDMADVAQKLEQLEMAMGMGGVSAPGAADDGFVSHLATDTVHYNPSDLSSWVESMLSELNA , please?
2.80

meta.source: paper PMC6286387
